composite z-score values, listed per item
Target: Streptavidin (Streptomyces avidinii) (UniProt P22629)
Sequence (P22629 whole entry, looked up): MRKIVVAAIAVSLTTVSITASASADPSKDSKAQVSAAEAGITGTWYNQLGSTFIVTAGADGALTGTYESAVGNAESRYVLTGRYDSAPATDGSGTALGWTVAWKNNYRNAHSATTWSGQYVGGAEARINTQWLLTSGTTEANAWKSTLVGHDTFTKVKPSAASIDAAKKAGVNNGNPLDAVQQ
Assay: streptavidin binders on small-molecule microarray, primary screen, artefact control for SMM compound annotation, biophysical, 635/667 nm fluorescence (AID 1147);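 also: signal reflects streptavidin binding to arrayed compounds as a control protein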
Details: streptavidin binding, higher = more signal

{"columns": ["Compound", "composite z-score"],
 "data": [
  ["COc1ccc([Si](C)(C)[C@@H]2[C@@H](CC(=O)N3Cc4ccccc4C[C@H]3CO)O[C@]3(C(=O)N(Cc4ccc(I)cc4)c4ccccc43)[C@H]2C)cc1", 0.143],
  ["C=CCNC(=O)[C@H]1[C@@H]2C(=O)O[C@@H](c3ccccc3)[C@@H](c3ccccc3)N2[C@@H](c2ccc(O)cc2)[C@]12C(=O)N(C(=O)OCCOC)c1ccc(C#Cc3ccc(OC)cc3)cc12", 0.21],
  ["CS(=O)(=O)CCOC(=O)C1=CC(CCCO)=CC(C2CC2)N(Cc2sc3ccccc3c2Cl)C=C1C(=O)OCCS(C)(=O)=O (stereo not drawn)", 1.41]
]}

* * *

Experiment: P. aeruginosa biofilm formation inhibitors, primary screen, PAO1 strain, BacTiter-Glo luminescence, LB-PBS (AID 1144)
Conditions: 12 h, higher = more signal
Quantity: z-score

{"columns": ["Compound", "Quantity", "Readout Number"],
 "data": [
  ["C=CCNC(=O)[C@@H]1[C@H]2C(=O)O[C@H](c3ccccc3)[C@H](c3ccccc3)N2[C@H](c2ccc(O)cc2)[C@@]12C(=O)N(C(=O)OCCOC)c1ccc(C#CCC(C(=O)OC)C(=O)OC)cc12", "z-score", 0.132],
  ["O=C1O[C@H](c2ccccc2)[C@H](c2ccccc2)N2[C@H]1[C@@H](C(=O)O)[C@]1(C(=O)Nc3ccc(C#CC4(O)CCCCCC4)cc31)[C@H]2c1ccccc1OCCO", "z-score", 1.27],
  ["C=C(C)C1CN([C@H](CO)c2ccccc2)C(=O)/C1=C\\c1ccccc1 (stereo partly drawn)", "z-score", 1.3]
]}

* * *

Experiment: osmotic lysis modulators in infected erythrocytes, primary screen, PSAC antagonist project, cell-based, P. falciparum Indochina, OD700, 3 h (AID 1156)
Settings: higher = more signal, called active from +8 up or from −8 down
Threshold rule: z-score greater than or equal to 0.3 is 1 (yes); below that, 0 (no).

{"columns": ["Molecule", "Answer Label"],
 "data": [
  ["CC[C@@H]1C=C(C(=O)O)[C@H](c2cccc(Cl)c2)N1S(=O)(=O)c1ccc(C)cc1", "0 (no)"],
  ["CCCC1(C(=O)OC)C=C2C(=C(C(C)C)C(=O)C2C)CN1 (stereo not given)", "1 (yes)"],
  ["CN1C(=O)C2CC=C(C3=CCO[C@@H]3[C@H]3CCCN3S(=O)(=O)c3ccccc3[N+](=O)[O-])CC2C1=O (stereo not given in full)", "0 (no)"],
  ["CC1CC/C=C\\[C@H]2OC34C=CCN(CCN5CCOCC5)C(=O)[C@H]3N(C(CO)C(C)C)C(=O)[C@@H]4C2C(=O)O1 (stereo not given in full)", "1 (yes)"],
  ["CCCCC(=C=CC[C@@H](O)c1ccccc1OCCO)C[C@@H](O)c1ccccn1", "1 (yes)"],
  ["COc1ccc(C#Cc2ccc3c(c2)[C@]2(C(=O)N3)[C@H](c3ccccc3OCCO)N3[C@H](c4ccccc4)[C@H](c4ccccc4)OC(=O)[C@H]3[C@@H]2C(=O)NC[C@H](O)c2ccccc2)cc1", "0 (no)"],
  ["COc1c(C)cc(-c2cc3c(c(CCc4ccccc4)n2)[Si](C(C)C)(C(C)C)O[C@H]3c2ccccc2)cc1C", "1 (yes)"],
  ["[N-]=[N+]=Nc1ccccc1C[C@@]1(C(=O)NCc2ccccc2)N=C(c2ccc(OCCCO)cc2)O[C@@H]1c1ccccc1", "1 (yes)"],
  ["CCCCN1CC=CC23O[C@@H]4C=CCCOC(=O)C4[C@H]2C(=O)N(CCO)[C@@H]3C1=O (stereo not given in full)", "1 (yes)"],
  ["COCCOC(=O)N1C(=O)[C@@]2(c3cc(C#CCNC(N)=O)ccc31)[C@H](c1ccccc1OCCO)N1[C@H](c3ccccc3)[C@H](c3ccccc3)OC(=O)[C@H]1[C@@H]2C(=O)N1CCCCCCC1", "1 (yes)"],
  ["COC(=O)[C@@]1(Cc2ccccc2)[C@H]2c3cc(C(=O)N(C)C)n(Cc4nc5ccccc5[nH]4)c3C[C@H]2CN1C(=O)c1ccccc1", "1 (yes)"],
  ["COCCCNC(=O)[C@@]1(Cc2ccccc2I)c2ccccc2C(=O)N(C2CCCCC2)[C@H]1c1ccc(CO)cc1", "1 (yes)"],
  ["C[C@]1(C(=O)O)c2ccccc2C(=O)N(Cc2cc(C(F)(F)F)cc(C(F)(F)F)c2)[C@H]1c1ccc(CO)cc1", "0 (no)"],
  ["O=C(O)C1=CC[C@H]2C(=O)N(c3ccccc3)C(=O)[C@@H]12", "0 (no)"],
  ["CO[C@H]1O[C@H](CO)[C@@H](OC(=O)Nc2cccc(F)c2)[C@H](OC(=O)c2cc3ccccc3[nH]2)[C@H]1OC(=O)c1cc2ccccc2[nH]1", "0 (no)"]
]}

* * *

Test system: Noggin (protein binding on small-molecule microarray)
Experiment: Noggin binders on small-molecule microarray, primary screen, biochemical, 635/667 nm fluorescence (AID 1095);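 also: score merges 667 nm feature fluorescence with signal to noise over triplicate slides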
Conditions: 635 nm fluorescence, higher = more signal

{"columns": ["Compound", "Assay System", "composite z-score"],
 "data": [
  ["C=C(CCCC)/C(=C/C[C@@H](OC(C)=O)c1ccc(OCCO)cc1)c1cc(C(=O)OC)ccc1OC", "Noggin (protein binding on small-molecule microarray)", 0.0148],
  ["COC(=O)[C@@]1(Cc2ccc(F)cc2)[C@H]2c3cc(C(=O)N4CCCC4)n(C[C@H](O)CO)c3C[C@H]2CN1C(=O)c1ccccc1", "Noggin (protein binding on small-molecule microarray)", -0.123],
  ["CC(=O)NCCCC[C@@H]1NC(=O)[C@H]2C[C@@H](C(=O)NCCCCCN)[C@@H](c3ccc(O)cc3)N2C1=O", "Noggin (protein binding on small-molecule microarray)", 1.35],
  ["C=C[C@H](C)[C@@H](OC(=O)Nc1ccc(SC)cc1)c1ccc(OCCO)cc1", "Noggin (protein binding on small-molecule microarray)", 1.05],
  ["CO[C@H]1O[C@H](CO)[C@@H](OC(=O)Nc2ccccc2)[C@@H]2OC(=O)[C@@H](Cc3ccccc3)C/C=C/C[C@H](Cc3ccccc3)C(=O)O[C@@H]12", "Noggin (protein binding on small-molecule microarray)", -0.0235],
  ["C=C(C(=O)CC[C@@H](OC(=O)c1ccccc1-c1ccccc1C(=O)O)c1cccc(OCCO)c1)C(C)C", "Noggin (protein binding on small-molecule microarray)", 0.782],
  ["COc1c(C)cc(-c2cc3c(c(CCc4ccccc4)n2)[Si](C(C)C)(C(C)C)O[C@H]3c2ccccc2)cc1C", "Noggin (protein binding on small-molecule microarray)", 0.108],
  ["CC(C)C(=C=CC[C@H](O)c1cccc(OCCO)c1)C[C@H](O)c1ccccn1", "Noggin (protein binding on small-molecule microarray)", 0.731],
  ["[N-]=[N+]=Nc1ccccc1C[C@]1(C(N)=O)COC(c2ccc(OCCCO)cc2)=N1", "Noggin (protein binding on small-molecule microarray)", -0.863],
  ["CC(C)N1C(=O)[C@@]2(Cc3ccccc31)c1ccccc1C(=O)N(Cc1ccccc1C(F)(F)F)[C@H]2c1ccc(CO)cc1", "Noggin (protein binding on small-molecule microarray)", 0.841],
  ["COC(=O)[C@@]1(Cc2ccc(F)cc2)[C@H]2c3cc(C(=O)N4CCCC4)n(CCSCCO)c3C[C@H]2CN1C(=O)c1ccccc1", "Noggin (protein binding on small-molecule microarray)", -0.906],
  ["COCCCNC(=O)[C@]1(Cc2ccccc2N=[N+]=[N-])N=C(c2ccc(OCCCO)cc2)O[C@@H]1c1ccccc1", "Noggin (protein binding on small-molecule microarray)", -0.0042],
  ["[N-]=[N+]=Nc1ccccc1C[C@]1(C(=O)N2CCCCC2)N=C(c2ccc(OCCCO)cc2)O[C@H]1c1ccccc1", "Noggin (protein binding on small-molecule microarray)", 0.595],
  ["CC(C)N1C(=O)[C@@]2(Cc3ccccc31)c1ccccc1C(=O)N(Cc1ccccc1)[C@H]2c1ccc(CO)cc1", "Noggin (protein binding on small-molecule microarray)", 0.209],
  ["COCCOC(=O)N1C(=O)[C@@]2(c3cc(C#CC4=CCCCC4)ccc31)[C@H](c1ccc(O)cc1)N1[C@H](c3ccccc3)[C@H](c3ccccc3)OC(=O)[C@H]1[C@@H]2C(=O)N1CCc2cc(OC)c(OC)cc2C1", "Noggin (protein binding on small-molecule microarray)", 0.286],
  ["O=C(O)C1=CC[C@H]2C(=O)N(c3ccccc3)C(=O)[C@@H]12", "Noggin (protein binding on small-molecule microarray)", -0.312],
  ["C=CCC(OC(C)=O)[C@@H]1[C@@H](N(Cc2cccc3ccccc23)C(=O)c2ccc(C)cc2)c2cc(OCCCO)ccc2N1C(=O)Cc1ccc2ccccc2c1 (some centres undefined)", "Noggin (protein binding on small-molecule microarray)", -0.206],
  ["CCOC(=O)C1=CCC(c2cccn2C(=O)OC(C)(C)C)N(S(=O)(=O)c2ccc(C)cc2)C1 (centres undefined)", "Noggin (protein binding on small-molecule microarray)", 0.205],
  ["CO[C@H]1O[C@H](CO)[C@@H](OC(=O)Nc2cccc(F)c2)[C@H](OC(=O)c2cc3ccccc3[nH]2)[C@H]1OC(=O)c1cc2ccccc2[nH]1", "Noggin (protein binding on small-molecule microarray)", 0.696],
  ["COCCOC(=O)N1C(=O)[C@@]2(c3cc(C#CCNC(N)=O)ccc31)[C@H](C(=O)Nc1nc3ccccc3s1)[C@H]1C(=O)O[C@H](c3ccccc3)[C@H](c3ccccc3)N1[C@@H]2c1ccc(O)cc1", "Noggin (protein binding on small-molecule microarray)", 0.939],
  ["CCCCCN1CC=CC23O[C@@H]4/C=C\\CCCOC(=O)C4[C@H]2C(=O)N(CCCCCO)[C@@H]3C1=O (some centres undefined)", "Noggin (protein binding on small-molecule microarray)", -0.636],
  ["[N-]=[N+]=Nc1ccccc1C[C@@]1(C(=O)NCc2ccccc2)N=C(c2ccc(OCCCO)cc2)O[C@@H]1c1ccccc1", "Noggin (protein binding on small-molecule microarray)", 0.922],
  ["C=C(/C=C\\CNS(=O)(=O)c1ccc(C)cc1)[C@H](O)[C@H]1CCCN1S(=O)(=O)c1ccccc1[N+](=O)[O-]", "Noggin (protein binding on small-molecule microarray)", 0.177],
  ["COc1c(C)cc(-c2nc(-c3ccccc3)c3c(c2C)CO[Si]3(C(C)C)C(C)C)cc1C", "Noggin (protein binding on small-molecule microarray)", 0.323],
  ["COC(=O)[C@@]1(Cc2ccccc2)[C@H]2c3cc(C(=O)N(C)C)n(Cc4nc5ccccc5[nH]4)c3C[C@H]2CN1C(=O)c1ccccc1", "Noggin (protein binding on small-molecule microarray)", -0.307],
  ["COCCOC(=O)N1C(=O)[C@@]2(c3cc(C#CCC(C(=O)OC)C(=O)OC)ccc31)[C@H](C(N)=O)[C@H]1C(=O)O[C@H](c3ccccc3)[C@H](c3ccccc3)N1[C@@H]2c1ccccc1OCCO", "Noggin (protein binding on small-molecule microarray)", 1.56],
  ["CN1C(=O)C2C=CC(C(O)c3ccc([N+](=O)[O-])cc3)N(Nc3ccccc3)C2C1=O (centres undefined)", "Noggin (protein binding on small-molecule microarray)", -0.0487],
  ["C=CCOC(=O)[C@H]1[C@@H]2C(=O)O[C@@H](c3ccccc3)[C@@H](c3ccccc3)N2[C@@H](c2ccc(OCCOC(=O)[C@@H]3C[C@@H]4C(=O)N[C@@H](Cc5ccccc5)C(=O)N4[C@@H]3c3ccc(O)cc3)cc2)[C@]12C(=O)Nc1ccc(I)cc12", "Noggin (protein binding on small-molecule microarray)", 1.49],
  ["COc1cc2c(cc1O)C(C)N(Cc1sc3ccccc3c1Cl)CC2 (centres undefined)", "Noggin (protein binding on small-molecule microarray)", -0.417]
]}
